measurement target: ALCAT1 (Homo sapiens (Human))
Sequence (Q6UWP7 whole entry): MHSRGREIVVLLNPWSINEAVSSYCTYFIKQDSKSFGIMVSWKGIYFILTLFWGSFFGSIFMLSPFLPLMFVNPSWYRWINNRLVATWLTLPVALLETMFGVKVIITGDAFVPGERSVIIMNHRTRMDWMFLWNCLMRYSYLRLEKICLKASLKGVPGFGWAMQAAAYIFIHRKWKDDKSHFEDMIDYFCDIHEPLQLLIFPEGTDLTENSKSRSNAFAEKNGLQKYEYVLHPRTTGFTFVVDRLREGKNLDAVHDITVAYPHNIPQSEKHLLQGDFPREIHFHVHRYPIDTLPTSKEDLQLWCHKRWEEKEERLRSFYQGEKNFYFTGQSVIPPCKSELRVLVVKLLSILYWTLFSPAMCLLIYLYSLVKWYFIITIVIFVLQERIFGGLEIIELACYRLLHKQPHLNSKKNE
test details: In vitro acyltransferase assay for ALCAT1 inhibitors
Type: biochemical
test context: ALCAT1 enzyme activity; read-out: IC50 values (upper bounds)
pIC50: −log10 of the molar value.
This listing pairs compounds with measured pIC50.
measured metric: pIC50

>>> result("O=C(Nc1cc(-c2nnc(-c3ccco3)o2)ccc1F)c1cc(Cl)ccc1OC(F)F")
"> 7.00"
>>> result("COc1ccc(C(F)(F)F)cc1C(=O)Nc1cc(-c2nnc(-c3ccco3)o2)ccc1F")
"> 7.00"
>>> result("Cc1ccc(OCC(F)F)c(C(=O)Nc2cc(-c3nnc(-c4ccco4)o3)ccc2F)c1")
"> 7.00"
>>> result("COc1ccc(OC(F)(F)F)cc1C(=O)Nc1cc(-c2nnc(-c3ccco3)o2)ccc1F")
"> 7.00"
>>> result("CCOc1ccc(CC)cc1C(=O)Nc1cccc(-c2nnc(-c3ccco3)o2)c1")
"> 7.00"
>>> result("CCOc1ccc(CC)cc1C(=O)Nc1cc(-c2nnc(-c3ccco3)o2)ccc1F")
"> 7.46"

====

measurement target: ALCAT1 (Homo sapiens (Human))
test details: In vitro acyltransferase assay for ALCAT1 inhibitors
Type: biochemical
test context: 1 μM compound; in vitro enzymatic assay
inhibition at 1 µM below 90% gives rule not met; inhibition at 1 µM at or above it gives rule met.

>>> class_name("O=C(Nc1cccc(-c2nnc(-c3ccco3)o2)c1)c1ccccc1I")
"rule not met"
>>> class_name("O=C(Nc1cc(-c2nnc(-c3ccco3)o2)ccc1F)c1cc(F)ccc1OCC(F)F")
"rule met"
>>> class_name("COc1cc(C(=O)Nc2cccc(-c3nnc(-c4ccco4)o3)c2)cc([N+](=O)[O-])c1")
"rule not met"
>>> class_name("O=C(Nc1cccc(-c2nnc(-c3ccc(Cl)o3)o2)n1)c1ccccc1F")
"rule not met"
>>> class_name("COc1c(Br)cc(Br)cc1C(=O)Nc1cccc(-c2nnc(-c3ccco3)o2)c1")
"rule met"
>>> class_name("CC(C)Oc1ccc(Br)cc1C(=O)Nc1cccc(-c2nnc(-c3ccco3)o2)c1")
"rule not met"
>>> class_name("COc1ccc(C(F)(F)F)cc1C(=O)Nc1cccc(-c2nnc(-c3ccco3)o2)c1")
"rule met"

====

measurement target: ALCAT1 (Homo sapiens (Human))
test details: In vitro acyltransferase assay for ALCAT1 inhibitors
Assay type: biochemical
test context: 10 μM compound; in vitro enzymatic assay
measured metric: inhibition at 10 µM (%)

>>> result_number("O=C(Nc1cccc(-c2nnc(-c3ccco3)o2)c1)c1cccnc1F [Compound 37]")
76
>>> result_number("CCOc1ccc(Cl)cc1C(=O)Nc1cccc(-c2nnc(-c3ccco3)o2)c1 [Compound 122]")
100
>>> result_number("COc1cccc(C(=O)Nc2cccc(-c3nnc(-c4ccco4)o3)c2)c1OC [Compound 169]")
93
>>> result_number("O=C(Nc1cccc(-c2nnc(-c3ccco3)o2)c1)c1cccc(Cl)c1F [Compound 186]")
100
>>> result_number("O=C(Nc1cccc(-c2nnc(-c3ccco3)o2)c1)c1ccccc1C(F)(F)F [Compound 7]")
3
>>> result_number("COC(=O)c1ccc(OC)c(C(=O)Nc2cccc(-c3nnc(-c4ccco4)o3)c2)c1 [Compound 115]")
53
>>> result_number("CCCOc1ccc(F)cc1C(=O)Nc1cccc(-c2nnc(-c3ccco3)o2)c1 [Compound 126]")
100
>>> result_number("CC(C)Oc1ccc(Br)cc1C(=O)Nc1cccc(-c2nnc(-c3ccco3)o2)c1 [Compound 477]")
68
>>> result_number("O=C(Nc1cccc(-c2nnc(-c3ccno3)o2)c1)c1ccccc1F [Compound 42]")
70
